target.or.test.system: Calmodulin-1 (Homo sapiens) (UniProt P0DP23)
assay.info: small molecules binding Ca-loaded calmodulin-1 – biochemical, small-molecule microarray, Cy5-labelled CALM1, plus calcium, artefact control for SMM control-protein annotation, profiling panel (AID 1112);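 further: score merges spot fluorescence with signal to noise from triplicate slides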
recorded.conditions: Cy5-CALM1 binding fluorescence, higher = more signal
Tick Criterion met if composite z-score is 0.1 or greater. Tick Criterion not met if composite z-score is less than 0.1.

[[record]]
compound = "COc1cc(CO)cc(I)c1O[C@H]1C=C(C(=O)NCCO)C[C@@H](NC[C@@H]2CCCO2)[C@@H]1O"
class = "Criterion not met"

[[record]]
compound = "Cc1c(NC(=O)/C(C#N)=C/c2cccc([N+](=O)[O-])c2)c(=O)n(-c2ccccc2)n1C"
class = "Criterion not met"

[[record]]
compound = "O=C(CS)NCCCCCNC(=O)[C@H]1C[C@H]2C(=O)NCC(=O)N2[C@H]1c1cccc(OCCO)c1"
class = "Criterion met"

[[record]]
compound = "O=C1O[C@H](c2ccccc2)[C@H](c2ccccc2)N2[C@H]1[C@@H](C(=O)NC[C@H](O)c1ccccc1)[C@]1(C(=O)Nc3ccc(C#CC4=CCCCC4)cc31)[C@H]2c1ccccc1OCCO"
class = "Criterion met"

[[record]]
compound = "O=C(NCc1ccccc1)[C@@H]1c2ccccc2C(=O)N(C2Cc3ccccc3C2)[C@H]1c1ccc(CO)cc1"
class = "Criterion met"

[[record]]
compound = "COCCOC(=O)N1C(=O)[C@@]2(c3ccccc31)[C@H](C(=O)N1CCc3cc(OC)c(OC)cc3C1)[C@H]1C(=O)O[C@H](c3ccccc3)[C@H](c3ccccc3)N1[C@@H]2c1ccc(O)cc1"
class = "Criterion met"

[[record]]
compound = "[N-]=[N+]=NCc1ccccc1[C@H]1OC(c2ccc(OCCCO)cc2)=N[C@@]1(Cc1ccccc1)C(=O)N1CCCCC1"
class = "Criterion not met"

[[record]]
compound = "[N-]=[N+]=NCc1ccccc1[C@@H]1OC(c2ccc(OCCCO)cc2)=N[C@]1(CCS(=O)(=O)c1ccccc1)C(=O)N1CCCCC1"
class = "Criterion met"

[[record]]
compound = "NC(=O)[C@@]1(Cc2ccccc2)N=C(c2ccc(OCCCO)cc2)O[C@H]1c1ccccc1"
class = "Criterion met"

[[record]]
compound = "C[N+](C)(C)CCCCCCNC(=O)[C@H]1C[C@H]2C(=O)N[C@@H](Cc3ccccc3)C(=O)N2[C@H]1c1cccc(OCCO)c1"
class = "Criterion not met"

[[record]]
compound = "C=C(CCCC)/C(=C/C[C@@H](OC(C)=O)c1ccccc1OCCO)c1cc(C(=O)OC)ccc1OC"
class = "Criterion not met"

[[record]]
compound = "COC(=O)[C@@]1(Cc2ccc(OC)cc2)[C@H]2c3cc(C(=O)N4CCCC4)n(CCSCCO)c3C[C@H]2CN1C(=O)c1ccccc1"
class = "Criterion met"

[[record]]
compound = "C=CCN1C(=O)[C@]2(O[C@H](CCO)[C@@H]([Si](C)(C)c3ccc(OC)cc3)[C@@H]2C)c2cc(N(C=O)c3ccccc3)ccc21"
class = "Criterion met"

[[record]]
compound = "C=CCN1C(=O)[C@]2(Cc3ccccc3)N=C(c3ccc(OCCCO)cc3)O[C@@H]2c2ccccc21"
class = "Criterion not met"

[[record]]
compound = "CC(C)(C)OC(=O)CC[C@]1(C(=O)NCCN2CCOCC2)COC(c2ccc(OCCCO)cc2)=N1"
class = "Criterion not met"

[[record]]
compound = "O=C1OCC=C[C@H]2OC34C=CCN(CCN5CCOCC5)C(=O)[C@H]3N(CCO)C(=O)[C@@H]4[C@@H]12 (some centres undefined)"
class = "Criterion not met"

[[record]]
compound = "C=CC[C@@]1(C(=O)N2CCCCC2)N=C(c2ccc(OCCCO)cc2)O[C@@H]1c1ccccc1CN=[N+]=[N-]"
class = "Criterion met"

[[record]]
compound = "O=C(O)C1N=C(c2ccc(OCCCO)cc2)N(c2ccccc2)O1 (centres undefined)"
class = "Criterion not met"

[[record]]
compound = "COc1ccc([Si](C)(C)[C@@H]2[C@@H](CCn3cc([C@H](O)c4ccccc4)nn3)O[C@]3(C(=O)N(Cc4cccc(N5CCC5=O)c4)c4ccccc43)[C@H]2C)cc1"
class = "Criterion not met"

[[record]]
compound = "C[C@H]1C2[C@H](Cc3ccccc3)NC(=O)[C@]23C(=O)NCC(=O)N2CCC[C@H]2C(=O)NC/C=C/CCC/C=C/C3[C@@H]2O[C@]12C (some centres undefined)"
class = "Criterion not met"

[[record]]
compound = "COC(=O)[C@@]1(Cc2ccccc2)[C@H]2c3cc(C(=O)N4CCCC4)n(Cc4ccc(O)c(OC)c4)c3C[C@H]2CN1C(=O)c1ccccc1"
class = "Criterion not met"

[[record]]
compound = "COCCCNC(=O)[C@]1(Cc2ccccc2)N=C(c2ccc(OCCCO)cc2)O[C@@H]1c1ccccc1CN=[N+]=[N-]"
class = "Criterion met"

[[record]]
compound = "[N-]=[N+]=Nc1ccccc1[C@H]1OC(c2ccc(OCCCO)cc2)=N[C@@]1(CCS(=O)(=O)c1ccccc1)C(=O)NCc1ccccc1"
class = "Criterion met"

[[record]]
compound = "CCOC(=O)C[C@H]1[C@H](OC(=O)c2cc3ccccc3oc2=O)[C@@H](NC(=O)CC(C)C)c2cc(OCCCO)ccc2N1C(=O)c1ccccc1"
class = "Criterion not met"

[[record]]
compound = "COC(=O)C(CC#Cc1ccc2c(c1)[C@]1(C(=O)N2)[C@H](c2ccccc2OCCO)N2[C@H](c3ccccc3)[C@H](c3ccccc3)OC(=O)[C@H]2[C@@H]1C(N)=O)C(=O)OC"
class = "Criterion met"

[[record]]
compound = "CCCC[C@@H]1C[C@H]1[C@@H](NC(=O)c1cccnc1)c1ccc(Cl)cc1"
class = "Criterion met"

[[record]]
compound = "CCCC=C(CCC)[C@@H](NS(=O)(=O)c1ccc(Cl)cc1)c1ccc(C(=O)OC)cc1"
class = "Criterion not met"

[[record]]
compound = "O=C1C2C=CC(C(O)c3c(F)cccc3Cl)N(Nc3ccccc3F)C2C(=O)N1c1ccccc1 (centres undefined)"
class = "Criterion met"

[[record]]
compound = "NCCCCCNC(=O)[C@H]1C[C@H]2C(=O)N[C@@H](Cc3ccccc3)C(=O)N2[C@H]1c1cccc(OCCO)c1"
class = "Criterion met"

